system.under.test: UniProt Q9NWZ3
Sequence (Q9NWZ3 whole entry): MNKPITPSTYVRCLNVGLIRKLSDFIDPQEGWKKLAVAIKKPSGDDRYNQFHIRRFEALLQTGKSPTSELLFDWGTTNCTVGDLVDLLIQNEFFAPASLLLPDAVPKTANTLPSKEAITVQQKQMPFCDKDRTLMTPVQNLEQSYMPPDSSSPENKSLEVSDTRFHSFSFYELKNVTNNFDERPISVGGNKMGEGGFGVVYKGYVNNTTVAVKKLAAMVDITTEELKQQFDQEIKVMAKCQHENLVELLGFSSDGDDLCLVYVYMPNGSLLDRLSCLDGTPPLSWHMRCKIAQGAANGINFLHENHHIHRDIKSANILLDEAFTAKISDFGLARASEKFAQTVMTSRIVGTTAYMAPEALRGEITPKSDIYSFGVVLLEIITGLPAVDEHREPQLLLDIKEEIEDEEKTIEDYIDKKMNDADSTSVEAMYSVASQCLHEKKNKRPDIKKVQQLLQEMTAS
procedure.text: IRAK4 enzyme assay (mass spectrometry readout)
Assay type: biochemical
stated.conditions: human recombinant IRAK4 0.2 nM, 3 mM ATP; geometric mean of at least 2 experiments
observed.property: log10(IC50) (log10 of the value in nM)
Scale: decimal log of IC50, IC50 in nM.

Give recorded log10(IC50). COc1cc2nn([C@H]3CC[C@H](N(C)C(=O)[C@@H](C)O)CC3)cc2cc1C(=O)Nc1cccn(-c2cnn(C)n2)c1=O
0.04

Complete the entry with log10(IC50) for COc1cc2nn([C@@H]3CC[C@H](N(C)C(C)=O)C[C@@H]3C)cc2cc1C(=O)Nc1cccn(C)c1=O (single isomer, unassigned) [Example 6]
2.30

Hello, please tell me recorded log10(IC50) for this one: COc1cc2nn(C3CCC(c4cccnn4)CC3)cc2cc1C(=O)Nc1cccn(C)c1=O (single isomer, unassigned) [Example 24]
0.08

Quickly give me recorded log10(IC50) for COc1cc2nn([C@H]3CC[C@H](N(C)C(=O)[C@@H](C)O)CC3)cc2cc1C(=O)Nc1cccn(C2COC2)c1=O
-0.15

Supply reported log10(IC50) belonging to this compound: COc1cc2nn([C@H]3CC[C@H](N(C)C(C)=O)C[C@H]3C)cc2cc1C(=O)Nc1cccn(C)c1=O
-0.10

Look up and report measured log10(IC50) for this entry: COc1cc2nn([C@H]3CC[C@@]4(CC3)COC(=O)N4C)cc2cc1C(=O)Nc1cccn(C)c1=O
0.75

For the compound COc1cc2nn([C@H]3CC[C@H](n4cc(C(C)(C)O)nn4)CC3)cc2cc1C(=O)Nc1cccn(C)c1=O , give its measured log10(IC50) value.
0.00
